# STUDY_SYSTEM: Ephrin type-A receptor 4 (Homo sapiens, UniProt P54764)
# Sequence (P54764 whole entry): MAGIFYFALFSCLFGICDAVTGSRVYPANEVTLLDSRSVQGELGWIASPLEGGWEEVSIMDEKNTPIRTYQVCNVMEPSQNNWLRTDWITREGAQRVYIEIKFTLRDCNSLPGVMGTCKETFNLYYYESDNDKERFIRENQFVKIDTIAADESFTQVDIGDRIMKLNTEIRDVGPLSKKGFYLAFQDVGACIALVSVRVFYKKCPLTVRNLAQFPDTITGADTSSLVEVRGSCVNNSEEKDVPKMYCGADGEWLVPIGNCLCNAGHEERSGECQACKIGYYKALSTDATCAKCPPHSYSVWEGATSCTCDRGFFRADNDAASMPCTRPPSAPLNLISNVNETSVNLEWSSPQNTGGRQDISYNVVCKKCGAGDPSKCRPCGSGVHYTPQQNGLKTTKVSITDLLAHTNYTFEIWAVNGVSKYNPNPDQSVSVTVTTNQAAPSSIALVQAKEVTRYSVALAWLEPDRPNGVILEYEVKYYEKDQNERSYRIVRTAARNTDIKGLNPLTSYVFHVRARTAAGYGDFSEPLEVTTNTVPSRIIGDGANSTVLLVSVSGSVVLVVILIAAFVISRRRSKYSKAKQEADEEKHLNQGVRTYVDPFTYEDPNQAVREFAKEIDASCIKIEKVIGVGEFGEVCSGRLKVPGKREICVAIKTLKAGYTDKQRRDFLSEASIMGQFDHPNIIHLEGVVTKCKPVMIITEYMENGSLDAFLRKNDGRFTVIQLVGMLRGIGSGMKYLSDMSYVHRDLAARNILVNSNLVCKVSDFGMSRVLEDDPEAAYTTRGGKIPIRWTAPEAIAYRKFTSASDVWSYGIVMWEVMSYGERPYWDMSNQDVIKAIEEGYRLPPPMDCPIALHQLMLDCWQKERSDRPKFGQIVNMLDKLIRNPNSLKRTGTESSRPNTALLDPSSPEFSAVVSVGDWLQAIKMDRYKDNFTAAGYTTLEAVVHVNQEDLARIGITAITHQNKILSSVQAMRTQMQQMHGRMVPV
Non-standard residues stand in square brackets, D forms with d. Residues, ends and D or L forms follow the SMILES beside them. *: point of attachment. Cyclohexanoyl(1S,3S-3-NH2) = N[C@H]1CCC[C@H](C(=O)*)C1; Phe(4-guanidino) = N=C(N)Nc1ccc(C[C@H](N)C(=O)O)cc1; Trp(5-OH) = N[C@@H](Cc1c[nH]c2ccc(O)cc12)C(=O)O; NHPh(4-CH2-morpholino) = c1cc(N*)ccc1CN1CCOCC1; Bip = N[C@@H](Cc1ccc(-c2ccccc2)cc1)C(=O)O; hArg = N=C(N)NCCCC[C@H](N)C(=O)O; GABA = NCCCC(=O)O; X2 = Oc1ccccc1N*
Lab note: compare Kd with 700 nM, writing True if less and False if equal or more.

Field: example entries. Status: answers known.
N=C(N)NCCCC[C@H](NC(=O)[C@H](Cc1ccc(-c2ccccc2)cc1)NC(=O)[C@H](Cc1c[nH]c2ccc(O)cc12)NC(=O)CCCN)C(=O)NCC(=O)Nc1ccccc1O (H-[GABA][Trp(5-OH)][Bip][hArg]G-X2)    True
N=C(N)NCCCC[C@H](NC(=O)[C@H](Cc1ccc(-c2ccccc2)cc1)NC(=O)[C@H](Cc1c[nH]c2ccc(O)cc12)NC(=O)[C@H]1CC[C@H](N)C1)C(N)=O    False

Lookup: Below 700 nM on Kd? Entry N=C(N)NCCCC[C@H](NC(=O)[C@H](Cc1ccc(-c2ccccc2)cc1)NC(=O)[C@H](Cc1c[nH]c2ccc(O)cc12)NC(=O)[C@H]1CCC[C@H](N)C1)C(=O)NCC(=O)Nc1ccc(CN2CCOCC2)cc1 ({Cyclohexanoyl(1S,3S-3-NH2)}-[Trp(5-OH)][Bip][hArg]G-{NHPh(4-CH2-morpholino)})
Found: True

Lookup: Below 700 nM on Kd? Entry N=C(N)Nc1ccc(C[C@H](NC(=O)[C@H](Cc2ccc(-c3ccccc3)cc2)NC(=O)[C@H](Cc2c[nH]c3ccccc23)NC(=O)CCCN)C(N)=O)cc1 (H-[GABA]W[Bip][Phe(4-guanidino)]-NH2)
Found: False

====

# METHOD_DESCRIPTION: Aqueous solubility of compound
# Format: physicochemical
# ASSAY_CONTEXT: buffer; read-out: solubility
MEASURED_ENDPOINT: solubility (µM)
Number in µM, nothing else.

Lookup: What value of solubility has been reported for the following molecule? COc1ccc2[nH]cc(CCNC(=O)[C@H](Cc3ccncc3)NC(=O)[C@H](Cc3ccc(Cl)cc3)NC(=O)[C@H](Cc3c[nH]c4ccc(O)cc34)NC(=O)CCCN)c2c1
Found: 100

====

# STUDY_SYSTEM: Ephrin type-A receptor 4 (Homo sapiens, UniProt P54764)
Non-standard residues stand in square brackets, D forms with d. Residues, ends and D or L forms follow the SMILES beside them. *: point of attachment. Phe(4-(2-MeO-Ph)) = COc1ccccc1-c1ccc(C[C@H](N)C(=O)O)cc1; Cyclohexanoyl(1S,3S-3-NH2) = N[C@H]1CCC[C@H](C(=O)*)C1; Trp(5-OH) = N[C@@H](Cc1c[nH]c2ccc(O)cc12)C(=O)O; NH(4-morpholinophenyl) = c1cc(N2CCOCC2)ccc1N*; Bip = N[C@@H](Cc1ccc(-c2ccccc2)cc1)C(=O)O; hArg = N=C(N)NCCCC[C@H](N)C(=O)O; X4 = COc1cc(CN*)cc(OC)c1; GABA = NCCCC(=O)O
Reported Kd values are given for each entry in this list.
Number in nM, nothing else.

Below, 3 molecules whose answers are already recorded.
COc1ccccc1-c1ccc(C[C@H](NC(=O)[C@H](Cc2c[nH]c3ccc(O)cc23)NC(=O)[C@H]2CCC[C@H](N)C2)C(=O)N[C@@H](CCCCNC(=N)N)C(=O)NCC(=O)Nc2ccc(N3CCOCC3)cc2)cc1 ({Cyclohexanoyl(1S,3S-3-NH2)}-[Trp(5-OH)][Phe(4-(2-MeO-Ph))][hArg]G-{NH(4-morpholinophenyl)})    106
COc1cc(CNC(=O)CNC(=O)[C@H](CCCCNC(=N)N)NC(=O)[C@H](Cc2ccc(-c3ccccc3)cc2)NC(=O)[C@H](Cc2c[nH]c3ccc(O)cc23)NC(=O)CCCN)cc(OC)c1 (H-[GABA][Trp(5-OH)][Bip][hArg]G-X4)    307
NCCCC[C@H](NC(=O)[C@H](Cc1ccc(-c2ccccc2)cc1)NC(=O)[C@H](Cc1c[nH]c2ccc(O)cc12)NC(=O)CCCN)C(N)=O (H-[GABA][Trp(5-OH)][Bip]K-NH2)    437

Let us move to another entry and its Kd.
Lookup: Form field: Kd recorded for Cc1ccccc1-c1ccc(C[C@H](NC(=O)[C@H](Cc2c[nH]c3ccc(O)cc23)NC(=O)CCCN)C(=O)N[C@@H](CCCCNC(=N)N)C(N)=O)cc1 with Ephrin type-A receptor 4 (Homo sapiens, UniProt P54764) (enter value)
Found: 362
